Experimental target: Potassium voltage-gated channel subfamily A member 5 (Homo sapiens, UniProt P22460)
Sequence (P22460 whole entry): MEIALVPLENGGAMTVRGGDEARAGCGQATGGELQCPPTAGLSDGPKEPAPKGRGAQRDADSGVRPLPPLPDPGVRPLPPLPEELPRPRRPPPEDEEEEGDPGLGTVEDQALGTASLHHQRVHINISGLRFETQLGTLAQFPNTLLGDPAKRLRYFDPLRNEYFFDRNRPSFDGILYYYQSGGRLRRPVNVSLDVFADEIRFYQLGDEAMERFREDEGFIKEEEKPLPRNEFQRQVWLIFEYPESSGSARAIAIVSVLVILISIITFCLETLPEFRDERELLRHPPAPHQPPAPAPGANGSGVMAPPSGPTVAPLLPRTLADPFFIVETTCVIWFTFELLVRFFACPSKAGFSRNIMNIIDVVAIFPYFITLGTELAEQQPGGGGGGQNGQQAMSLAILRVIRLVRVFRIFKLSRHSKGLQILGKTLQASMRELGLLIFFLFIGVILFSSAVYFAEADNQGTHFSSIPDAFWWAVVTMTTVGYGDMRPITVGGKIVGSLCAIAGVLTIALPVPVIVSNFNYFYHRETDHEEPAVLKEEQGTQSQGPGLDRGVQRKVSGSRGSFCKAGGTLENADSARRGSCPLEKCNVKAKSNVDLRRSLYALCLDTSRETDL
Method description: Antagonist activity at human Kv1.5 expressed in mouse L929 cells assessed as inhibition of delayed rectifier repolarization current by patch clamp assay
pIC50: −log10 of the molar value.
Measured metric: pIC50

Compound	Experimental target	pIC50
CC1=Nc2ccnn2[C@H](c2ccc(Cl)c(Cl)c2)C1c1ncnn1C(C)(C)C (stereo partly drawn)	Potassium voltage-gated channel subfamily A member 5 (Homo sapiens, UniProt P22460)	6.65

a. CCOc1cccc(-n2ncnc2C2C(C)=Nc3cc(C(F)(F)F)nn3[C@@H]2c2ccc(Cl)c(Cl)c2)n1 (stereo partly drawn)
b. CC1=Nc2cc(C(F)(F)F)nn2[C@H](c2ccc(Cl)c(Cl)c2)C1c1ncnn1C1CCC(C(F)(F)F)CC1 (stereo partly drawn)
Query block: Of a and b , whose reported pIC50 is the larger number? Give the label of your selection.
Result block: a
